Give measured IC50 for each item. Keep answers brief.
- EXPERIMENTAL_TARGET: human cardiac ion channel proteins hKir3.1/Kir3.4 (Homo sapiens, UniProt P48544+P48549)
- Construct: expressed in transfected cells
- METHOD_SUMMARY: Atomic Absorption Screening (AAS) Rb efflux assay of hKir3.1/Kir3.4 block, carbachol/high K+ stimulated, 10-pt or 7-pt CR
- Format: cell-based
- ASSAY_CONDITIONS: 7-pt CR (0.037 to 27 μmol/L), AAS Rb efflux, CHO-K1 cells expressing hKir3.1/Kir3.4; mean of >3 replicates; read-out: IKACh IC50 7-pt CR, AAS
Just the number in µM, nothing appended.

Q) Data request, read-out IC50, for CC(C)[C@@H](CN1CCCC1)N(C)C(=O)c1cc(F)cc(C(F)(F)F)c1 [Example 16.8]
A) 8

Q) Same for CC(C)[C@@H](CN1CCCCC1)N(C)C(=O)c1ccc(F)cc1Cl [Example 16.26]
A) 4.8

Q) Same for CC(C)[C@@H](CN1CCCCC1)N(C)C(=O)c1ccc(Br)cc1 [Example 16.27]
A) 4

Q) Same for CC(C)[C@@H](CN1CCCC1)N(C)C(=O)c1ccc(Br)c(F)c1 [Example 16.52]
A) 3.2

Q) Same for CC(C)[C@@H](CN1CCCC1)N(C)C(=O)c1cccc(Cl)c1 [Example 16.48]
A) 4.2

---

- EXPERIMENTAL_TARGET: human cardiac ion channel proteins hKir3.1/Kir3.4 (Homo sapiens, UniProt P48544+P48549)
- Construct: expressed in transfected cells
- Sequence (P48549 1-501): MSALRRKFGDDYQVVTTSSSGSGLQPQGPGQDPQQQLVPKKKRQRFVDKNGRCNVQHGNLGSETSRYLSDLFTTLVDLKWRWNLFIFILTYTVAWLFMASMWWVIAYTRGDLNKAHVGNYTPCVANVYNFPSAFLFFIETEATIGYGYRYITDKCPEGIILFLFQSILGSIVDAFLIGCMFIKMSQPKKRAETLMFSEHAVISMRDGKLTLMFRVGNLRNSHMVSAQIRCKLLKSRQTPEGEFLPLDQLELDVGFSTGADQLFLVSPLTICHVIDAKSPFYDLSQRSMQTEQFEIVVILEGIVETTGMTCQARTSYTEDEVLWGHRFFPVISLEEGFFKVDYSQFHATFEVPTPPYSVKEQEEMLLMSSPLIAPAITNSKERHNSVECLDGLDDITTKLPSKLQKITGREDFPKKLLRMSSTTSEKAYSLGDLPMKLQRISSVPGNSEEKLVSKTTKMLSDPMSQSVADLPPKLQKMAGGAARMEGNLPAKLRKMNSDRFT
- Sequence (P48544 1-419): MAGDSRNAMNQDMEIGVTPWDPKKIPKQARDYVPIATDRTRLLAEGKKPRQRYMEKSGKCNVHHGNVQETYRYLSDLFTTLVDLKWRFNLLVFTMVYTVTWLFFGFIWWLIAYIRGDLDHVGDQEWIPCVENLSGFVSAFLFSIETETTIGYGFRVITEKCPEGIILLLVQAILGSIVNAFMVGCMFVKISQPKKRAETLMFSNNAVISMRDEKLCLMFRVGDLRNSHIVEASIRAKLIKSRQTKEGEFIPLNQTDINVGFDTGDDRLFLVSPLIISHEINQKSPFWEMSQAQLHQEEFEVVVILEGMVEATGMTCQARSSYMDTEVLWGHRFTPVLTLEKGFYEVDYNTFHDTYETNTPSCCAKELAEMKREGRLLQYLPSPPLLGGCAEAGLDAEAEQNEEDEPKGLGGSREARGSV
- METHOD_SUMMARY: Atomic Absorption Screening (AAS) Rb efflux assay of hKir3.1/Kir3.4 block, carbachol/high K+ stimulated, 10-pt or 7-pt CR
- Format: cell-based
- ASSAY_CONDITIONS: 10-pt CR (0.003 to 67 μmol/L), AAS Rb efflux, CHO-K1 cells expressing hKir3.1/Kir3.4; mean of >4 replicates; read-out: IKACh IC50 10-pt CR, AAS
- Procedure: Human KCNJ3 encoding Kir3.1 (Genbank acc. No. NM_002239) was inserted between EcoRI and NotI in the pIRESneo3 vector (Clontech Laboratories, Inc. CA, USA). […] The blocking effects of compounds on the human cardiac ion channel proteins hKir3.1/Kir3.4 were assessed in CHO-K1 cells stably expressing the channel proteins using Atomic Absorption Screening (AAS). […]
Give measured pIC50 for each item. Keep answers brief.
Please treat pIC50 as minus the base-10 logarithm of the molar concentration.

Q) Data request, read-out pIC50, for CCCC[C@@H](CN1CC(O)C1)N(C)C(=O)c1ccccc1
A) 6.00

Q) Same for CCCC[C@@H](CN1CC(O)C1)N(C)C(=O)c1ccc(C#N)cc1F
A) 6.08

Q) Same for CC[C@@H](CN1CC(O)C1)N(C)C(=O)c1ccc(Cl)cc1
A) 5.41

Q) Same for CO[C@H](C)[C@@H](CN1CC(O)C1)N(C)C(=O)c1ccc(Cl)cc1
A) 5.20

Q) Same for CO[C@H](C)[C@@H](CN1CCCC1)N(C)C(=O)c1ccc(Br)cc1
A) 5.66

Q) Same for Cc1cccc(C(=O)N(C)[C@H](CN2CCCC2)C2CC2)c1
A) 5.03

Q) Same for Cc1ccc(C(=O)N(C)[C@H](CN2CCCC2)C2CC2)cc1C
A) 5.41

Q) Same for CCC[C@@H](CN1CC(O)C1)N(C)C(=O)c1ccc(F)c(C)c1
A) 6.08

Q) Same for CC(C)C[C@@H](CN1CC(O)C1)N(C)C(=O)c1cccc(C(F)F)c1
A) 6.11

Every entry's value here was drawn from patent US8361998B2.
